Reference for the values: patent US8022091B2

- system: human Edg-1 (S1P1) (Homo sapiens, UniProt P21453)
- Sequence (P21453 whole entry): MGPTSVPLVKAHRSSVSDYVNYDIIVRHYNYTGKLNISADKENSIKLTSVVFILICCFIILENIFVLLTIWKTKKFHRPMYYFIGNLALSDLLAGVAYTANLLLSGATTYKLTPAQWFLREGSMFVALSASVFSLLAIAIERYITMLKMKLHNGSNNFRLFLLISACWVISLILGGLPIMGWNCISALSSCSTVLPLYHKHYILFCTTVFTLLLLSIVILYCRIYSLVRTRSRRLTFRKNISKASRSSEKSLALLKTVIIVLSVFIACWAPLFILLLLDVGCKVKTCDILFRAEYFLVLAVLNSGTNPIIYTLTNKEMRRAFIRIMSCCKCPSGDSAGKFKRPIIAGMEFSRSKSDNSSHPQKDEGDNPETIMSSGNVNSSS
- assay text: S1P1 binding assay: inhibition of [33P]-S1P binding to membrane fraction of HEK-293 cells transferred with the human Edg-1 (S1P1) gene
- conditions: [33P]-S1P 0.1 nM, human Edg-1 (S1P1) HEK-293 membrane fraction, 1 h at 30° C.; read-out: IC50 (concentration at which binding in the absence of the test compound was inhibited by 50%)
pIC50: −log10 of the molar value.
property name: pIC50

Below, each entry is followed by its recorded pIC50 result.
INSERT INTO assay_data (structure_smiles_string, property_name, assay_value) VALUES
  ('CCn1c(Oc2cccc(N3CCC(=O)CC3)c2)nnc1[C@@H](C)NS(=O)(=O)c1ccc(Cl)c(Cl)c1', 'pIC50', 8.27),
  ('CCn1c(Oc2ccc(F)cc2)nnc1[C@@H](C)NS(=O)(=O)c1ccc(Cl)c(Cl)c1', 'pIC50', 7.70),
  ('CCn1c(Oc2cccc(NS(C)(=O)=O)c2)nnc1[C@@H](C)NS(=O)(=O)c1ccc2c(Cl)cccc2c1', 'pIC50', 8.72),
  ('CCn1c(Oc2cccc(N3CCN(C)CC3)c2)nnc1[C@@H](C)NS(=O)(=O)c1cc2ccccc2s1', 'pIC50', 8.10),
  ('CCn1c(Oc2ccc3c(c2)NC(=O)CC3)nnc1[C@@H](C)NS(=O)(=O)c1ccc(Cl)c(Cl)c1', 'pIC50', 7.82);

[1] CCn1c(Oc2ccc(C)cc2)nnc1[C@@H](C)NS(=O)(=O)c1ccc(Cl)c(Cl)c1
[2] CCn1c(Oc2cccc(N3CCOCC3)c2)nnc1[C@@H](C)NS(=O)(=O)c1ccc(Cl)c(Cl)c1
Lowest pIC50? choose 1 or 2 Select an item and report its label.
1
